Would you mind telling me the reported IC50 of each entry?
# TARGET OR TEST SYSTEM: Axl phosphorylation in 293MSR-AxlWT6 cells (Homo sapiens (Human))
# Sequence (P30530 26-894): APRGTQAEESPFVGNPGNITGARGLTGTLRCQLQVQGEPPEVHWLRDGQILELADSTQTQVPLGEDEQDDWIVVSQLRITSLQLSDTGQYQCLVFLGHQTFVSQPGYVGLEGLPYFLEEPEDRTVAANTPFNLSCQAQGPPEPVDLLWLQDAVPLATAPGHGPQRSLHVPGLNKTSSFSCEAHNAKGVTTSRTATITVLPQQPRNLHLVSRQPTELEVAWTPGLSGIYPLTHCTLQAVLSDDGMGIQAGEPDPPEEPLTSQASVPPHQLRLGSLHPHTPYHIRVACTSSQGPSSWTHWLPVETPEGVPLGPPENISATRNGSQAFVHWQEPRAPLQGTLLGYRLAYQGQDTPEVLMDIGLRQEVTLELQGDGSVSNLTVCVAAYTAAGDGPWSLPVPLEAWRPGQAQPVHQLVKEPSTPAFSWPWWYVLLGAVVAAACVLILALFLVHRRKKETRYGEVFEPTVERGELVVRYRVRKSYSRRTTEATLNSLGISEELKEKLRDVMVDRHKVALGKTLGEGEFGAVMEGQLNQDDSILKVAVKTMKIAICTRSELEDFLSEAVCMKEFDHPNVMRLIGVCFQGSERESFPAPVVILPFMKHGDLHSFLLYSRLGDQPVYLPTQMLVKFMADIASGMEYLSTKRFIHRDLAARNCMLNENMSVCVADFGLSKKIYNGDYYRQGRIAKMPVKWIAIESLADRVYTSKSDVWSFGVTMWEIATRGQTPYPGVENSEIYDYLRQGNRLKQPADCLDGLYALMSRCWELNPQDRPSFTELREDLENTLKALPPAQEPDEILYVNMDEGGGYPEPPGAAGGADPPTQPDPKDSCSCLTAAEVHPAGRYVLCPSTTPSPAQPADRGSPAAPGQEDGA
# PROTOCOL DESCRIPTION: Cellular Axl phosphorylation ELISA assay (Gas6-stimulated 293MSR-AxlWT6 cells)
# Format: cell-based
# EXPERIMENTAL PARAMETERS: Table 4A, read-out: CELL AXL IC50
Hi! Could you send only the number? It should be in nM, unit omitted.

Retrieve IC50 measured for N#CC1(COc2nc(C(=O)NCC(F)(F)F)nc(N3CCC(c4c[nH]c5nccnc45)CC3)n2)CC1 and print it.
231

Retrieve IC50 measured for C[C@H](CO)NC(=O)c1cc(N2CCC(c3n[nH]c4ncccc34)CC2)nc(OC[C@@H]2CCOC2)n1 and print it.
154

Retrieve IC50 measured for CN(C)CCOc1ccc(C(N)=O)nc1C1CCN(c2cc(C(=O)NC3CCC3)nc(OC[C@@H]3C[C@@H]3C#N)n2)CC1 and print it.
242

Retrieve IC50 measured for COc1ccnc2[nH]cc(C3CCN(c4nc(OC[C@H]5C[C@H]5C#N)nc(C(=O)NC5(C)CCC5)n4)CC3)c12 and print it.
0.24

Retrieve IC50 measured for COCCNC(=O)c1cc(N2CCC(c3ccc(N)c(C(N)=O)n3)CC2)nc(O[C@H](C)COC)n1 and print it.
14.9

Retrieve IC50 measured for C[C@@H](NC(=O)c1cc(N2CCC(c3ccc(N)c(C(N)=O)n3)CC2)nc(OCC2CC2(F)F)n1)C(C)(C)O (single isomer, unassigned) [Example 16] and print it.
12.6

Retrieve IC50 measured for N#CC1(COc2nc(C(=O)NCC(F)(F)F)cc(N3CCC(COc4cncnc4N)CC3)n2)CC1 and print it.
12.6

Retrieve IC50 measured for N#CC1(COc2nc(C(=O)NC34CC(C3)C4)nc(N3CCC(COc4cccnc4N)CC3)n2)CC1 and print it.
6.98

Retrieve IC50 measured for C[C@@H](O)COc1nc(C(=O)NC23CC(C2)C3)cc(N2CCC(c3n[nH]c4ncccc34)CC2)n1 and print it.
40.8

Retrieve IC50 measured for COC[C@@H](C)Oc1nc(C(=O)NCC2CC2)nc(N2CCC(c3ccc(N)c(C(N)=O)n3)CC2)n1 and print it.
23.8

Retrieve IC50 measured for C[C@H](CO)NC(=O)c1cc(N2CCC(c3c[nH]c4ncccc34)CC2)nc(OC[C@H]2CCO2)n1 and print it.
15.5

Retrieve IC50 measured for COC[C@@H](C)Oc1nc(C(=O)NC2(C#N)CCC2)cc(N2CCC(c3n[nH]c4ncccc34)CC2)n1 and print it.
12.4

Retrieve IC50 measured for N#C[C@@H]1C[C@@H]1COc1nc(C(=O)NCC(F)(F)F)cc(N2CCC(COc3cncnc3N)CC2)n1 and print it.
23.4

Retrieve IC50 measured for N#C[C@@H]1C[C@@H]1COc1nc(C(=O)NCC2CC2)nc(N2CCC(c3ccc(N)c(C(N)=O)n3)CC2)n1 and print it.
66

Retrieve IC50 measured for C[C@H](CO)NC(=O)c1cc(N2CCC(COc3cc(-c4cn(C)cn4)cnc3N)CC2)nc(OCC2CC2)n1 and print it.
0.36

###

# TARGET OR TEST SYSTEM: Axl phosphorylation in 293MSR-AxlWT6 cells (Homo sapiens (Human))
# PROTOCOL DESCRIPTION: Cellular Axl phosphorylation ELISA assay (Gas6-stimulated 293MSR-AxlWT6 cells)
# Format: cell-based
# EXPERIMENTAL PARAMETERS: Table 4B, read-out: CELL AXL IC50
Would you mind telling me the reported IC50 of each entry?
Hi! Could you send only the number? It should be in nM, unit omitted.

Retrieve IC50 measured for COc1ccnc2[nH]nc(C3CCN(c4nc(OC[C@H]5C[C@H]5C#N)nc(C(=O)NC5CCC5)n4)CC3)c12 [Example 501] and print it.
1.07

Retrieve IC50 measured for COc1ccnc2[nH]cc(C3CCN(c4nc(OC[C@H]5C[C@H]5C#N)nc(C(=O)NC56CC(C5)C6)n4)CC3)c12 (single isomer, unassigned) [Example 504] and print it.
0.125

Retrieve IC50 measured for COc1ccnc2[nH]nc(C3CCN(c4cc(C(=O)N[C@H](C)CO)nc(OCc5ccccc5)n4)CC3)c12 [Example 415] and print it.
0.052

Retrieve IC50 measured for C[C@H](NC(=O)c1nc(OCC2CC2)nc(N2CCC(COc3cc(-c4cn(C)cn4)cnc3N)CC2)n1)C(F)(F)F [Example 391] and print it.
0.143

Retrieve IC50 measured for COC[C@@H](C)Oc1nc(C(=O)NC23CC(C2)C3)nc(N2CCC(c3c[nH]c4nccc(OC)c34)CC2)n1 (single isomer, unassigned) [Example 505] and print it.
0.409

Retrieve IC50 measured for COc1ccnc2[nH]cc(C3CCN(c4cc(C(=O)N[C@H](C)CO)nc(OC[C@H]5CCCO5)n4)CC3)c12 [Example 459] and print it.
0.272

Retrieve IC50 measured for COc1ccnc2[nH]cc(C3CCN(c4cc(C(=O)N[C@H](C)CO)nc(OCC5(C#N)CC5)n4)CC3)c12 [Example 387] and print it.
0.152

Retrieve IC50 measured for COC[C@@H](C)Oc1nc(C(=O)NC2CCC2)nc(N2CCC(c3c[nH]c4nccc(OC)c34)CC2)n1 [Example 502] and print it.
0.132
